Just for reference, patent WO2001072771A2 is where these values come from.

Attribute: ratio over background
Target: soluble IGF-1 receptor (human) (UniProt P08069)
Assay: phage ELISA
attribute-measured: ratio over background

INSERT INTO assay_data (binder, attribute_measured, reported_measurement) VALUES
  ('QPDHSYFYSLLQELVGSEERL [20E2B-4-F9-IGFR]', 'ratio over background', 14.7),
  ('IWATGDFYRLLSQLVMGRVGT [20E2B-2-B8-IGFR]', 'ratio over background', 5.7),
  ('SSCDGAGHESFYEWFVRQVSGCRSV [H2CA-3-C8-IGFR]', 'ratio over background', 5.6),
  ('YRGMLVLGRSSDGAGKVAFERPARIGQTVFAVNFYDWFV [A6L-0-E6-IR]', 'ratio over background', 31);
